Recorded values, source paper PMC3907505.

Molecular target: Complex IV (cytochrome c oxidase) (Rattus norvegicus, UniProt P00406+P05503)
Construct: gene Mt-co1; native complex in saponin-permeabilized left ventricular (apex) cardiac fibers; dimer of 13 subunits per monomer; with Cytochrome c oxidase subunit 3; Cytochrome c oxidase subunit 4 isoform 1, mitochondrial; Cytochrome c oxidase subunit 5A, mitochondrial; Cytochrome c oxidase subunit 5B, mitochondrial; Cytochrome c oxidase subunit 6A2, mitochondrial; Cytochrome c oxidase subunit 6B1; Cytochrome c oxidase subunit 6C; Cytochrome c oxidase subunit 7A1, mitochondrial; Cytochrome c oxidase subunit 7B, mitochondrial; Cytochrome c oxidase subunit 7C, mitochondrial; Cytochrome c oxidase subunit 8B, mitochondrial
Assay: high-resolution respirometry (O2 consumption), permeabilized cardiac fibers
Type: biochemical
Conditions: ascorbate 2 mM/TMPD 0.5 mM as complex IV substrates; pH 7.1, 30°C; 1 g/l BSA in medium; Hillslope −0.86
observationType: IC50 (µM)
Respond with the bare value in µM.

Given item CCCCCCCCCCCCCCCC(=O)O[C@H](CC(=O)[O-])C[N+](C)(C)C [C16∶0c, Palmitoylcarnitine] , the value recorded as its IC50 is 72.3
